Entries annotated with measured Plant response rating, Corn
Tested on: corn
Assay: Test B pre-/postemergence herbicide test
Assay type: in vivo, Zea mays
Conditions: 500 g ai/ha; visual rating 0-100, 0 no effect, 100 complete control; preemergence
Reply: number alone, nothing else.

// worked examples, Plant response rating, Corn included
[
  {
    "Compound": "CCc1nc(C(C)(C)C)sc1C(=O)Nc1cccc(C(=O)N(CC)CC)c1 [Compound 205]",
    "Plant response rating, Corn": 40
  },
  {
    "Compound": "CCn1nc(C(C)(C)C)cc1C(=O)Nc1cccc(OCCCF)c1 [Compound 138]",
    "Plant response rating, Corn": 10
  },
  {
    "Compound": "CCN(CC)C(=O)c1ccnc(NC(=O)c2cc(C(C)(C)C)nn2CC)c1 [Compound 153]",
    "Plant response rating, Corn": 20
  },
  {
    "Compound": "CCc1nc(C(C)(C)C)sc1C(=O)Nc1cccc(C(=O)NCC2CC2)c1 [Compound 212]",
    "Plant response rating, Corn": 30
  },
  {
    "Compound": "CCn1nc(C(C)(C)C)cc1C(=O)Nc1cc(C(=O)NC(C)(C)C)ccn1 [Compound 154]",
    "Plant response rating, Corn": 0
  },
  {
    "Compound": "CC(=O)c1cccc(NC(=O)c2cc(C(C)(C)C)nn2CC(F)(F)F)c1 [Compound 126]",
    "Plant response rating, Corn": 0
  },
  {
    "Compound": "CCOC(=O)c1cccc(NC(=O)c2sc(C(C)(C)C)nc2CC)c1 [Compound 204]",
    "Plant response rating, Corn": 0
  },
  {
    "Compound": "CC(=NO)c1cccc(NC(=O)c2cn(C(C)C)nc2C)c1 [Compound 180]",
    "Plant response rating, Corn": 0
  }
]

Next compound, Plant response rating, Corn to be filled in.
q: Please list Plant response rating, Corn recorded for the compound CON=C(C)c1cccc(NC(=O)c2cc(C(C)(C)C)nn2C)c1 [Compound 106]
a: 0

----------
Tested on: barnyardgrass
Assay: Test B pre-/postemergence herbicide test
Type: in vivo, Echinochloa crus-galli
Conditions: postemergence, 500 g ai/ha; scale 0 to 100, 0 is no effect, 100 is complete control
Entries annotated with measured Barnyardgrass plant response rating

// worked examples, Barnyardgrass plant response rating included
[
  {
    "Compound": "Cc1nn(C(C)(C)C)nc1C(=O)Nc1cc(C(=O)N(C)C)ccc1F [Compound 378]",
    "Barnyardgrass plant response rating": 0
  },
  {
    "Compound": "Cn1nc(C(C)(C)C)cc1C(=O)Nc1cccc(C(=O)NC2CC2)n1 [Compound 315]",
    "Barnyardgrass plant response rating": 20
  },
  {
    "Compound": "CCSCNC(=O)c1cccc(NC(=O)c2cc(C(C)(C)C)nn2CC)c1 [Compound 329]",
    "Barnyardgrass plant response rating": 10
  }
]

Next compound, Barnyardgrass plant response rating to be filled in.
q: Please list Barnyardgrass plant response rating recorded for the compound CCc1nn(C(C)(C)CC)nc1C(=O)Nc1cc(C(=O)N2CC=CC2)ccc1F [Compound 371]
a: 0

----------
Tested on: large crabgrass
Assay: Test C pre-/postemergence herbicide test
Type: in vivo, Digitaria sanguinalis
Conditions: postemergence; 62 g ai/ha; scale 0 to 100
Parameter Measured: Plant response rating, Crabgrass, Large
Reply: number alone, nothing else.

// worked examples, Plant response rating, Crabgrass, Large included
[
  {
    "Molecule": "CCc1nc(C(C)(C)C)sc1C(=O)Nc1cccc(C(=O)NCC2CC2)c1 [Compound 212]",
    "Target Desc": "large crabgrass",
    "Plant response rating, Crabgrass, Large": 0
  },
  {
    "Molecule": "CCn1nc(C(C)(C)C)cc1C(=O)Nc1cccc(C(=O)NC2CC2)c1 [Compound 44]",
    "Target Desc": "large crabgrass",
    "Plant response rating, Crabgrass, Large": 60
  },
  {
    "Molecule": "CCNC(=O)c1cccc(NC(=O)c2cc(C(C)(C)C)nn2CCF)c1 [Compound 35]",
    "Target Desc": "large crabgrass",
    "Plant response rating, Crabgrass, Large": 40
  },
  {
    "Molecule": "C=Cn1nc(C(C)(C)C)cc1C(=O)Nc1cccc(C(=O)N(CC)CC)c1 [Compound 34]",
    "Target Desc": "large crabgrass",
    "Plant response rating, Crabgrass, Large": 20
  }
]

Next molecule, Plant response rating, Crabgrass, Large to be filled in.
q: Please list Plant response rating, Crabgrass, Large recorded for the molecule CCNC(=O)c1cccc(NC(=O)c2cc(C(C)(C)C)nn2CC(F)(F)F)c1 [Compound 31]
a: 50
